B1: CPEB3 Ribozyme (parent)
chain: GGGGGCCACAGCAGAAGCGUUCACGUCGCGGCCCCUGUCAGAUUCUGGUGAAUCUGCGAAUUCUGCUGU

- Variants of: B1
- measurement protocol: self-cleavage, relative activity (ratio to wild type); higher = more cleavage; co-transcriptional
endpoint name: self-cleavage
Please give only the number in your answer, with no unit.

State the recorded self-cleavage for this entry: G5C U46C 0.267

State the recorded self-cleavage for this entry: C12G G47U 0.965

State the recorded self-cleavage for this entry: C6U G58C 0.909

State the recorded self-cleavage for this entry: G2C C27G 0.106

State the recorded self-cleavage for this entry: G47U A60C 0.386

State the recorded self-cleavage for this entry: G30U C63A 0.181

State the recorded self-cleavage for this entry: C18U A59G 0.793

State the recorded self-cleavage for this entry: A8G G28C 0.102

State the recorded self-cleavage for this entry: G11C C18A 0.0969

State the recorded self-cleavage for this entry: G4C C24G 0.117

State the recorded self-cleavage for this entry: C18G C33U 0.226
